# test_target: ABCG2 (Homo sapiens, UniProt Q9UNQ0)
# Sequence (Q9UNQ0 whole entry): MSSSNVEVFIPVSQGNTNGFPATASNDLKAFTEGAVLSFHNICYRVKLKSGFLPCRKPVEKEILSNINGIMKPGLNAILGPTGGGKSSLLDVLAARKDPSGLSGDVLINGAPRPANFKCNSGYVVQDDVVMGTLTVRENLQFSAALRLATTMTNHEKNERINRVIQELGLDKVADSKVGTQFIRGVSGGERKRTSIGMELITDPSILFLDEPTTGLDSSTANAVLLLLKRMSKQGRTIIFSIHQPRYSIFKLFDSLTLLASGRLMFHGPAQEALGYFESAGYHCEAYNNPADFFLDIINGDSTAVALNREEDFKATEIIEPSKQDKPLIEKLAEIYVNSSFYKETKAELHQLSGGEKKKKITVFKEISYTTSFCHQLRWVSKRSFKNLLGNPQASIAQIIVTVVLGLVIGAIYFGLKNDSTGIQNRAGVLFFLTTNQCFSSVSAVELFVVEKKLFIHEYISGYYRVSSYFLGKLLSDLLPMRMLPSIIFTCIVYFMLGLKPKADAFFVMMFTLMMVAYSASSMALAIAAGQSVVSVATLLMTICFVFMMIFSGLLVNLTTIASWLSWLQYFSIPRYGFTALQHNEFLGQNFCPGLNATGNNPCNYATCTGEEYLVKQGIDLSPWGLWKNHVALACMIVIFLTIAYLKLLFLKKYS
# protocol_notes: Activation of human ABCG2-mediated ATPase activity preincubated for 2 mins followed by ATP addition at 0.5 uM and measured after 20 mins by colorimetric assay relative to control
# run_parameters: read-out: Activity
attribute_measured: activity at 20 min, 0.5 µM (%)
Give just the number in %; leave the unit off.

Q) Given CNC(=O)C12CC1[C@@H](n1cnc3c(NCc4cccc(Cl)c4)nc(C#Cc4ccc(F)c(F)c4)nc31)[C@H](O)[C@@H]2O (single isomer, unassigned) , state its recorded activity at 20 min, 0.5 µM.
A) 74.4

====

# test_target: ABCG2 (Homo sapiens, UniProt Q9UNQ0)
# protocol_notes: Activation of human ABCG2-mediated ATPase activity preincubated for 2 mins followed by ATP addition at 5 uM and measured after 20 mins by colorimetric assay relative to control
# run_parameters: read-out: Activity
attribute_measured: activity at 20 min, 5 µM (%)
Give just the number in %; leave the unit off.

Q) Fill in the recorded activity at 20 min, 5 µM for this compound, with ABCG2 (Homo sapiens, UniProt Q9UNQ0) as test system: CNC(=O)C12CC1[C@@H](n1cnc3c(NCc4cccc(Cl)c4)nc(C#Cc4ccc(F)c(F)c4)nc31)[C@H](O)[C@@H]2O (single isomer, unassigned)
A) 56.8
